Target: human mGluR2 (Homo sapiens, UniProt Q14416)
Sequence (Q14416 19-872): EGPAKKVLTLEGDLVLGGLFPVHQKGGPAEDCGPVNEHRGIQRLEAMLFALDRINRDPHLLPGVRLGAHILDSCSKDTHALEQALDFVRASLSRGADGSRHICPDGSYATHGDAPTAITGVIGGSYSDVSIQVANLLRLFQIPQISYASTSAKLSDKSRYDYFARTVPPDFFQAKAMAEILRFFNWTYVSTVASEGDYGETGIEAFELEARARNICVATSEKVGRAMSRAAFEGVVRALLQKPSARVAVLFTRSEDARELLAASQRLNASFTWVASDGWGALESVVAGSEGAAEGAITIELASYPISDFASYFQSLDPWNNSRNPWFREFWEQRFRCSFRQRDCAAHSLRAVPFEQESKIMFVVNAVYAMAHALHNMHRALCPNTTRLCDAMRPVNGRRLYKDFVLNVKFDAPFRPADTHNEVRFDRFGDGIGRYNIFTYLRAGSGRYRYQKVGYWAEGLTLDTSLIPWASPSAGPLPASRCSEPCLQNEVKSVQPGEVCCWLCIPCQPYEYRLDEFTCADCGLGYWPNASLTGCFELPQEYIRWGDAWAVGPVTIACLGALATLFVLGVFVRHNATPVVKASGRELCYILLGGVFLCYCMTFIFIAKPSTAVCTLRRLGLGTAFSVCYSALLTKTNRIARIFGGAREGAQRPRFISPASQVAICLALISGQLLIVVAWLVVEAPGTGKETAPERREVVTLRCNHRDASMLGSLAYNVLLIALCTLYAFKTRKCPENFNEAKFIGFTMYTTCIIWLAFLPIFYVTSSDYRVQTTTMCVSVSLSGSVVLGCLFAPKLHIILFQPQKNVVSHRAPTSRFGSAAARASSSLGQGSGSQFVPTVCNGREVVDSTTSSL
Test: [35S]-GTPγS binding assay of mGluR2 receptor activation (allosteric activator activity)
Conditions: membranes from CHO cells stably expressing human mGluR2; in presence of 1 μM glutamate
Method: A [^35S]-GTPγS binding assay was used to functionally assay mGluR2 receptor activation. The allosteric activator activity of compounds at the human mGluR2 receptor was measured using a [^35S]-GTPγS binding assay with membranes prepared from CHO cells which stably express the human mGluR2. […] The GTPγS binding assay therefore provides a quantitative measure of receptor activation. […]

# Compound, Unit descriptor, EC50
data = [
    ("Cc1cccc2nc(CN3CCC(c4ccc(F)cc4)CC3)n(C)c12 [Example 1.49]", "nM", 79.5),
    ("Cn1c(CN2CCN(c3ccc(Cl)c(Cl)c3)CC2)nc2ccccc21 [Example 26.8]", "nM", 187),
    ("Cc1cccc2nc(CN3CCC(CCOc4ccc(F)c(F)c4)CC3)n(C)c12 [Example 1.2]", "nM", 57),
    ("CCn1c(CN2CCC(c3ccccc3)(c3ccccc3)CC2)nc2ccccc21 [Example 1.54]", "nM", 1040),
    ("Cn1c(CN2CCC(O)(c3ccc(Cl)cc3)CC2)nc2ccccc21 [Example 1.75]", "nM", 8610),
]
